Target: ABCG2 (Homo sapiens)
Experiment: Bioluminescence imaging (BLI) assay in HEK293/ABCG2/fLuc cells
Conditions: human, 40 min, 17 μM
Protocol: HEK293/ABCG2/fLuc cells were plated into 96-well plates at a density of 4×10^4 cells/100 μL per well and were allowed to attach overnight. […] Light output from each well was quantified at the 40 min time point after initiation of imaging, and the signal-to-background (S/B) ratio of the light output from each compound divided by that from the control well was calculated. […] Images were taken every 5 min for ˜1 h, and light output from each well at the 40 min time point was chosen for quantification. […]
Where a name gives a salt, the structure may show the parent alone.
outcome-measure: Fold (BLI enhancement, S/B ratio over control) (fold)

| molecule | experimental-system | readout-unit | observed |
| --- | --- | --- | --- |
| CCCn1c(=O)c2[nH]c(C3CCCC3)nc2n(CCC)c1=O [1,3-dipropyl-8-cyclopentylxanthine] | ABCG2 (Homo sapiens) | fold | 4.3 |
| O=C1C(O)=C([C@H]2CC[C@H](c3ccc(Cl)cc3)CC2)C(=O)c2ccccc21 [atovaquone] | ABCG2 (Homo sapiens) | fold | 3.5 |
| COc1cc(N)c(Cl)cc1C(=O)NC1CCN(Cc2ccccc2)CC1 [clebopride] | ABCG2 (Homo sapiens) | fold | 6.7 |
| COc1ccccc1N1CCN(CC(O)COc2cccc3ccccc23)CC1 (centres unmarked) [naftopidil] | ABCG2 (Homo sapiens) | fold | 2.4 |
| COC(=O)C1=C(C)NC(C)=C(C(=O)OCCN(C)Cc2ccccc2)C1c1cccc([N+](=O)[O-])c1 (centres unmarked) [nicardipine] | ABCG2 (Homo sapiens) | fold | 2.9 |
| COC(=O)[C@H]1[C@H]2C[C@H]3c4[nH]c5cc(OC)ccc5c4CCN3C[C@H]2C[C@@H](OC(=O)c2cc(OC)c(OC)c(OC)c2)[C@@H]1OC [isoreserpine] | ABCG2 (Homo sapiens) | fold | 6.2 |
| CCN(CC)CCOc1ccc(C(=C(Cl)c2ccccc2)c2ccccc2)cc1 [clomiphene citrate] | ABCG2 (Homo sapiens) | fold | 6.7 |
| Nc1c2ccccc2nc2ccccc12 [aminacrine] | ABCG2 (Homo sapiens) | fold | 2.9 |

* * *

Recorded Fold (BLI enhancement), known compounds, one value per entry.
target: ABCG2 (Homo sapiens, UniProt Q9UNQ0); experiment: Bioluminescence imaging (BLI) assay in HEK293/ABCG2/fLuc cells; conditions: human, 40 min, 17 μM

| molecule | Fold (BLI enhancement), known compounds, fold |
| --- | --- |
| COC(=O)[C@H]1[C@H]2C[C@@H]3c4[nH]c5cc(OC)ccc5c4CCN3C[C@H]2C[C@@H](OC(=O)c2cc(OC)c(OC)c(OC)c2)[C@@H]1OC [reserpine] | 5.4 |
| OCCN(CCO)c1nc(N2CCCCC2)c2nc(N(CCO)CCO)nc(N3CCCCC3)c2n1 [dipyridamole] | 7.1 |
| COc1cc2ncnc(Nc3ccc(F)c(Cl)c3)c2cc1OCCCN1CCOCC1 [gefitinib] | 19.0 |

* * *

Target: ABCG2 (Homo sapiens, UniProt Q9UNQ0)
Sequence (Q9UNQ0 1-655): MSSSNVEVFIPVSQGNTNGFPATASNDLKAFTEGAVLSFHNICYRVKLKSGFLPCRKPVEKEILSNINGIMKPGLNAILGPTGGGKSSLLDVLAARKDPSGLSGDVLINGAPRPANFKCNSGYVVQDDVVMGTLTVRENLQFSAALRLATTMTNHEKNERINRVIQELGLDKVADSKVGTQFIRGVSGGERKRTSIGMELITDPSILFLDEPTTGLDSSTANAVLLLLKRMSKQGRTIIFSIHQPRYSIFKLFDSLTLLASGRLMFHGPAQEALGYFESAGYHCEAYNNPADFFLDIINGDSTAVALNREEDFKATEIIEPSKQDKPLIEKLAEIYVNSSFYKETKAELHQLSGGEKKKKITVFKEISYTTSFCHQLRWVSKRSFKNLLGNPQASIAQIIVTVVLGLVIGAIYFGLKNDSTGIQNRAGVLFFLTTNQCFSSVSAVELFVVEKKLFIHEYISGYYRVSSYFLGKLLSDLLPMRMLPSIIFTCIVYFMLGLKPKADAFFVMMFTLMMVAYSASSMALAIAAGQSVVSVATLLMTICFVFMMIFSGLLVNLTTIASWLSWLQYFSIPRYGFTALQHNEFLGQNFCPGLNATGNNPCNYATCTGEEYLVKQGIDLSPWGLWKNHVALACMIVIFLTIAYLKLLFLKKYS
Test: Bioluminescence imaging (BLI) assay in HEK293/ABCG2/fLuc cells
Structures can show the parent of a compound that is named as a salt.
Entries and their measured IC50 follow.

| compound | IC50 / µM |
| --- | --- |
| O=C(OCC(O)CO)c1ccccc1Nc1ccnc2cc(Cl)ccc12 (stereo not shown) [glafenine] | 3.2 |
| Cc1c(-c2ccccc2)oc2c(C(=O)OCCN3CCCCC3)cccc2c1=O [flavoxate hydrochloride] | 20 |
| COc1cc(N)c(Cl)cc1C(=O)NC1CCN(Cc2ccccc2)CC1 [clebopride maleate] | 8.2 |
| COc1cc2nc(N3CCN(C(=O)C4COc5ccccc5O4)CC3)nc(N)c2cc1OC (stereo not shown) [doxazosin mesylate] | 8 |

* * *

biological target: ABCG2 (Homo sapiens); assay: Bioluminescence imaging (BLI) assay in HEK293/ABCG2/fLuc cells; details: human, 40 min, 17 μM
Counter-ions that a name gives are not always drawn.
// values below are reported Fold (BLI enhancement), known compounds

| compound | Fold (BLI enhancement), known compounds [fold] |
| --- | --- |
| Cc1cc2nc3c(=O)[nH]c(=O)nc-3n(C[C@H](O)[C@H](O)[C@H](O)CO)c2cc1C | 5.4 |
| Cc1c(O)cccc1C(=O)N[C@@H](CSc1ccccc1)[C@H](O)CN1C[C@H]2CCCC[C@H]2C[C@H]1C(=O)NC(C)(C)C [nelfinavir mesylate] | 6.1 |
| COc1ccc([C@@H]2CC(=O)c3c(O)cc(O)cc3O2)cc1O | 5.0 |
| COc1cc(/C=C/C(=O)CC(=O)/C=C/c2ccc(O)c(OC)c2)ccc1O | 6.3 |

* * *

biological target: ABCG2 (Homo sapiens, UniProt Q9UNQ0); assay: Bioluminescence imaging (BLI) assay in HEK293/ABCG2/fLuc cells; details: human, 40 min, 17 μM
Structures can show the parent of a compound that is named as a salt. Residues, ends and D or L forms follow the SMILES beside them.
Quick reference for Fold (BLI enhancement, S/B ratio over control) among some compounds
outcome-measure: Fold (BLI enhancement, S/B ratio over control) (fold)

| compound | observed |
| --- | --- |
| CCCCCNC(=N)N/N=C/c1c[nH]c2ccc(OC)cc12 [tegaserod maleate] | 3.1 |
| CC(=O)c1ccc2c(c1)N(CCCN(C)C)c1ccccc1S2 | 6.2 |
| CCCCCCn1c(=O)c2c(ncn2C)n(C)c1=O | 3.8 |
| COc1cc(N)c(Cl)cc1C(=O)NC1CCN(Cc2ccccc2)CC1 [clebopride maleate] | 7.9 |
| CN1CCCC(n2nc(Cc3ccc(Cl)cc3)c3ccccc3c2=O)CC1 (stereo not shown) [azelastine hydrochloride] | 2.4 |
| Cc1cc(O)cc(C)c1Cl | 2.4 |
| CC(=O)c1ccc2c(c1)N(CCCN1CCC(CCO)CC1)c1ccccc1S2 | 5.8 |
| CC(C)c1nc(N(C)S(C)(=O)=O)nc(-c2ccc(F)cc2)c1/C=C/[C@@H](O)C[C@@H](O)CC(=O)O | 3.9 |
| Cc1cc2nc3c(=O)[nH]c(=O)nc-3n(C[C@H](O)[C@H](O)[C@H](O)CO)c2cc1C | 5.4 |
| CN(C)CCOc1ccc(/C(=C(/CCCl)c2ccccc2)c2ccccc2)cc1 | 2.3 |
| COc1ccc2c(c1OC)C(=O)O[C@@H]2[C@H]1c2c(cc3c(c2OC)OCO3)CCN1C [noscapine hydrochloride] | 2.3 |
| O=C(OCC(O)CO)c1ccccc1Nc1ccnc2cc(Cl)ccc12 (stereo not shown) | 20.6 |
| Cn1c(=O)c2[nH]c(C3CCCC3)nc2n(C)c1=O | 2.9 |
| Cc1c(O)cccc1C(=O)N[C@@H](CSc1ccccc1)[C@H](O)CN1C[C@H]2CCCC[C@H]2C[C@H]1C(=O)NC(C)(C)C [nelfinavir mesylate] | 6.1 |
| Cc1ccc(C(=O)C(C)CN2CCCCC2)cc1 (stereo not shown) [tolperisone hydrochloride] | 2.1 |
| COc1cc([S+](C)[O-])ccc1-c1nc2ncccc2[nH]1 (stereo not shown) | 3.0 |
| O=C1c2ccc(O)c(O)c2C(=O)c2c(O)ccc(O)c21 | 3.0 |
| CC(C)=CCC[C@]1(C)C=Cc2c(O)c3c(c(CC=C(C)C)c2O1)O[C@]12C(=C[C@@H]4C[C@H]1C(C)(C)O[C@@]2(C/C=C(/C)C(=O)O)C4=O)C3=O | 6.0 |
| CCN(CC)CCCC(C)Nc1c2ccc(Cl)cc2nc2ccc(OC)cc12 (stereo not shown) | 10.6 |
| Clc1ccc(COC(Cn2ccnc2)c2ccc(Cl)cc2Cl)cc1 (stereo not shown) | 2.5 |
| C#C[C@]1(O)CC[C@H]2[C@@H]3CCc4cc(O)ccc4[C@H]3CC[C@@]21C | 2.4 |
| COc1ccc(C(=O)NCc2ccc(OCCN(C)C)cc2)cc1OC [itopride hydrochloride] | 2.2 |
| COc1ccc([C@@H]2CC(=O)c3c(O)cc(O)cc3O2)cc1O | 5.0 |
| CC(=O)Oc1ccc2c(c1)CCC1C2CC[C@]2(C)C(=O)CCC12 (stereo partly shown) [estrone acetate] | 4.1 |
| NC1(C(=O)NCC(=O)O)CCCC1 [cycloleucylglycine] (HELM PEPTIDE1{[NC1(C(=O)[*:2])CCCC1].G}$$$$V2.0) | 2.5 |
| COc1c2occc2c(OC)c2c(=O)cc(C)oc12 | 3.4 |
| CCCC(=O)O[C@]1(C(=O)COC(C)=O)CC[C@H]2[C@@H]3C[C@H](F)C4=CC(=O)C=C[C@]4(C)[C@@]3(F)[C@@H](O)C[C@@]21C [difluprednate] | 2.0 |
| COc1ccc2cc1Oc1ccc(cc1)C[C@H]1c3c(cc4c(c3Oc3cc5c(cc3OC)CCN(C)[C@@H]5C2)OCO4)CCN1C | 2.1 |
